Tested on: Candida albicans
Assay: Antifungal activity against Candida albicans ATCC 90028 after 18 to 24 hrs by Alamar blue assay
Format: functional
Non-standard residues stand in square brackets, D forms with d. Residues, ends and D or L forms follow the SMILES beside them. His(τ-Bzl) = N[C@@H](Cc1cn(Cc2ccccc2)cn1)C(=O)O; Phe(4-NH2) = Nc1ccc(C[C@H](N)C(=O)O)cc1; Phe(4-Me) = Cc1ccc(C[C@H](N)C(=O)O)cc1; Cha = N[C@@H](CC1CCCCC1)C(=O)O; Orn = NCCC[C@H](N)C(=O)O
measured quantity: IC50

Cc1ccc(C[C@H](NC(=O)[C@@H](Cc2ccccc2)NC(=O)[C@@H](Cc2c[nH]c3ccccc23)NC(=O)[C@@H](N)CCCN)C(=O)N[C@H](Cc2ccccc2)C(=O)N[C@@H](Cc2ccc(N)cc2)C(N)=O)cc1 (H-[Orn][dW][dF][Phe(4-Me)][dF][Phe(4-NH2)]-NH2) ... Not Active
CC[C@H](C)[C@H](NC(=O)[C@H](CC1CCCCC1)NC(=O)[C@@H](Cc1ccccc1)NC(=O)[C@@H](N)CCCN)C(=O)N[C@H](Cc1ccccc1)C(=O)N[C@@H](Cc1cn(Cc2ccccc2)cn1)C(N)=O (H-[Orn][dF][Cha]I[dF][His(τ-Bzl)]-NH2) ... Not Active

###

Test system: Escherichia coli
Experiment: Anti-bacterial activity against Escherichia coli ATCC 35218 by CLSI method
Type: functional
Conditions: Escherichia coli, ATCC 35218; read-out: IC50
Non-standard residues stand in square brackets, D forms with d. Residues, ends and D or L forms follow the SMILES beside them. Phe(4-NH2) = Nc1ccc(C[C@H](N)C(=O)O)cc1; Phe(4-Me) = Cc1ccc(C[C@H](N)C(=O)O)cc1; dOrn = NCCC[C@@H](N)C(=O)O; Orn = NCCC[C@H](N)C(=O)O; Dab = NCC[C@H](N)C(=O)O
IC50 strictly under 10 µg/mL means 1; at 10 µg/mL or over means -1.

The following molecules have reported results that may help.
Cc1ccc(C[C@H](NC(=O)[C@@H](Cc2ccccc2)NC(=O)[C@@H](Cc2c[nH]c3ccccc23)NC(=O)[C@@H](N)CCCN)C(=O)N[C@H](Cc2ccccc2)C(=O)N[C@H](CCCN)C(N)=O)cc1 (H-[Orn][dW][dF][Phe(4-Me)][dF][dOrn]-NH2) ... -1
Cc1ccc(C[C@H](NC(=O)[C@@H](Cc2ccccc2)NC(=O)[C@@H](Cc2c[nH]c3ccccc23)NC(=O)[C@@H](N)CCCN)C(=O)N[C@H](Cc2ccccc2)C(=O)N[C@H](CCCCN)C(N)=O)cc1 (H-[Orn][dW][dF][Phe(4-Me)][dF][dK]-NH2) ... 1
Cc1ccc(C[C@H](NC(=O)[C@@H](Cc2ccccc2)NC(=O)[C@@H](Cc2c[nH]c3ccccc23)NC(=O)[C@@H](N)CCCN)C(=O)N[C@H](Cc2ccccc2)C(=O)N[C@@H](Cc2ccc(N)cc2)C(N)=O)cc1 (H-[Orn][dW][dF][Phe(4-Me)][dF][Phe(4-NH2)]-NH2) ... -1
Cc1ccc(C[C@H](NC(=O)[C@@H](Cc2ccccc2)NC(=O)[C@@H](Cc2c[nH]c3ccccc23)NC(=O)[C@@H](N)CCCN)C(=O)N[C@H](Cc2ccccc2)C(=O)N[C@H](Cc2c[nH]cn2)C(N)=O)cc1 (H-[Orn][dW][dF][Phe(4-Me)][dF][dH]-NH2) ... -1
Cc1ccc(C[C@H](NC(=O)[C@@H](Cc2ccccc2)NC(=O)[C@@H](Cc2c[nH]c3ccccc23)NC(=O)[C@@H](N)CCCN)C(=O)N[C@H](Cc2ccccc2)C(=O)N[C@@H](CCCN)C(N)=O)cc1 (H-[Orn][dW][dF][Phe(4-Me)][dF][Orn]-NH2) ... -1
Cc1ccc(C[C@H](NC(=O)[C@@H](Cc2ccccc2)NC(=O)[C@@H](Cc2c[nH]c3ccccc23)NC(=O)[C@@H](N)CCCN)C(=O)N[C@H](Cc2ccccc2)C(=O)N[C@H](CCCNC(=N)N)C(N)=O)cc1 (H-[Orn][dW][dF][Phe(4-Me)][dF][dR]-NH2) ... 1

Query :: Here's an entry: Cc1ccc(C[C@H](NC(=O)[C@@H](Cc2ccccc2)NC(=O)[C@@H](Cc2c[nH]c3ccccc23)NC(=O)[C@@H](N)CCCN)C(=O)N[C@H](Cc2ccccc2)C(=O)N[C@@H](CCN)C(N)=O)cc1 (H-[Orn][dW][dF][Phe(4-Me)][dF][Dab]-NH2) . Is its IC50 below 10 µg/mL?
Result :: 1

###

Tested on: Staphylococcus aureus
Experiment: Anti-bacterial activity against methicillin-resistant Staphylococcus aureus ATCC 33591 by CLSI method
Assay type: functional
Details: Staphylococcus aureus, ATCC 33591
Non-standard residues stand in square brackets, D forms with d. Residues, ends and D or L forms follow the SMILES beside them. Ala(9-anthryl) = N[C@@H](Cc1c2ccccc2cc2ccccc12)C(=O)O; His(τ-Bzl) = N[C@@H](Cc1cn(Cc2ccccc2)cn1)C(=O)O; Phe(4-Me) = Cc1ccc(C[C@H](N)C(=O)O)cc1; Bta = N[C@@H](Cc1csc2ccccc12)C(=O)O; Cha = N[C@@H](CC1CCCCC1)C(=O)O; Phg = N[C@H](C(=O)O)c1ccccc1; Orn = NCCC[C@H](N)C(=O)O
Consider the following molecules and their measured MIC readings.
Numeric only. Scale: µg/mL

Worked examples follow.
CC[C@H](C)[C@H](NC(=O)[C@H](CC1CCCCC1)NC(=O)[C@@H](Cc1c[nH]c2ccccc12)NC(=O)[C@@H](N)CCCN)C(=O)N[C@@H](Cc1c2ccccc2cc2ccccc12)C(=O)N[C@@H](Cc1cn(Cc2ccccc2)cn1)C(N)=O (H-[Orn][dW][Cha]I[Ala(9-anthryl)][His(τ-Bzl)]-NH2) ... 10
Cc1ccc(C[C@H](NC(=O)[C@@H](Cc2ccccc2)NC(=O)[C@@H](Cc2c[nH]c3ccccc23)NC(=O)[C@H](N)CCCNC(=N)N)C(=O)N[C@H](Cc2ccccc2)C(=O)N[C@@H](Cc2cn(Cc3ccccc3)cn2)C(N)=O)cc1 (H-[dR][dW][dF][Phe(4-Me)][dF][His(τ-Bzl)]-NH2) ... 20
Cc1ccc(C[C@H](NC(=O)[C@@H](Cc2ccccc2)NC(=O)[C@@H](Cc2c[nH]c3ccccc23)NC(=O)[C@@H](N)CCCNC(=N)N)C(=O)N[C@H](Cc2ccccc2)C(=O)N[C@@H](Cc2cn(Cc3ccccc3)cn2)C(N)=O)cc1 (H-R[dW][dF][Phe(4-Me)][dF][His(τ-Bzl)]-NH2) ... 20
NCCC[C@H](N)C(=O)N[C@H](Cc1c[nH]c2ccccc12)C(=O)N[C@@H](CC1CCCCC1)C(=O)N[C@H](C(=O)N[C@H](Cc1ccccc1)C(=O)N[C@@H](Cc1cn(Cc2ccccc2)cn1)C(N)=O)c1ccccc1 (H-[Orn][dW][Cha][Phg][dF][His(τ-Bzl)]-NH2) ... 20

Query :: Fill in the blank: the reported MIC of NCCC[C@H](N)C(=O)N[C@H](Cc1c[nH]c2ccccc12)C(=O)N[C@@H](CC1CCCCC1)C(=O)N[C@@H](Cc1csc2ccccc12)C(=O)N[C@H](Cc1ccccc1)C(=O)N[C@@H](Cc1cn(Cc2ccccc2)cn1)C(N)=O (H-[Orn][dW][Cha][Bta][dF][His(τ-Bzl)]-NH2) is ____.
Result :: 10
